System: IRAK1 (Homo sapiens) | Read-out: pIC50 | Origin: multiple publications
Sequence (P51617 whole entry): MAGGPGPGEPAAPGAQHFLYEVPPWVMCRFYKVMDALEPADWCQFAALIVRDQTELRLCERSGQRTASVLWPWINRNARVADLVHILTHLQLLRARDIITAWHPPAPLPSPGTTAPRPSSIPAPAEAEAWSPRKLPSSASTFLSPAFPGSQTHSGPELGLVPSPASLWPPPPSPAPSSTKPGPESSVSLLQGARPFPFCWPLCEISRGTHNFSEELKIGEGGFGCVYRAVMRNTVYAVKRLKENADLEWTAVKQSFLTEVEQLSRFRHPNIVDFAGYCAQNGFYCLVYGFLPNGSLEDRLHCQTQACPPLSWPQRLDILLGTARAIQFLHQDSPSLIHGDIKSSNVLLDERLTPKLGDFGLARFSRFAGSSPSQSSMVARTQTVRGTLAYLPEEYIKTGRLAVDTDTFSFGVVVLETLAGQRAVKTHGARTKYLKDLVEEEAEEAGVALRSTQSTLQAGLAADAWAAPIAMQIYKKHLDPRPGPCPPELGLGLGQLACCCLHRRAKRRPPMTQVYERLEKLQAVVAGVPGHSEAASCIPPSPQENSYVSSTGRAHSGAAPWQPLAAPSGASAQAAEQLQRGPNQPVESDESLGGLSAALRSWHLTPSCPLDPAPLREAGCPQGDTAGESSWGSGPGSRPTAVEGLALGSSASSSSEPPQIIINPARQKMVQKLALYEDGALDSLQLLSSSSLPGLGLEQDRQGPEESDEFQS
pIC50: −log10 of the molar value.

# annotated cases, reported pIC50 shown
[[record]]
molecule = "COc1ccc2c(c1)nc1n2Cc2cccc(c2)-c2ccc(=O)n(n2)Cc2cccc(c2)C(=O)N1"
recorded_value = "> 7.00"

[[record]]
molecule = "Nc1ncc(-c2cnn(C3CCNCC3)c2)cc1-c1nc2ccc(F)cc2[nH]1"
recorded_value = "5.00 to 7.00"

[[record]]
molecule = "Nc1ccc(-c2cnc(N)c(-c3nc4ccccc4[nH]3)c2)cn1"
recorded_value = "5.00 to 7.00"

[[record]]
molecule = "Cn1cc(-c2cccc(-c3ncc(-c4cnn(C)c4)c(NC4CCC(O)C4)n3)c2)cn1 (racemic)"
recorded_value = "5.30 to 6.00"

[[record]]
molecule = "O=C1Nc2nc3cc(O)ccc3n2Cc2cccc(c2)-c2ccc(=O)n(n2)Cc2cccc1c2"
recorded_value = "> 7.00"


Entry Cn1cc(-c2cccc(-c3ncc(-c4ccn(C)n4)c(NC4CC(CN)(CCl)C4)n3)c2)cn1 (centres unmarked) , tested on IRAK1 (Homo sapiens), has a reported pIC50 of 6.00 to 7.00

pIC50 of Cn1cc(-c2cccc(-c3ncc(-c4cnn(C)c4)c(NC4CC5(C4)CC(NS(C)(=O)=O)C5)n3)c2)cn1 (centres unmarked) , assay on IRAK1 (Homo sapiens), is 6.00 to 7.00

Here Cn1cc(-c2cccc(-c3ncc(-c4cnn(C)c4)c(NCC(O)C(F)(F)F)n3)c2)cn1 (centres unmarked) was tested on IRAK1 (Homo sapiens), and its pIC50 came to 6.00 to 7.00

Form field pIC50 for item Cn1cc(-c2cccc(-c3ncc(-c4cnn(C)c4)c(NCC4(N)CCCCC4)n3)c2)cn1 on IRAK1 (Homo sapiens): 6.00 to 7.00

Record Cc1nnc(-c2cnc(-c3cccc(-c4cnn(C)c4)c3)nc2NCCNS(C)(=O)=O)s1 ; system IRAK1 (Homo sapiens); pIC50 = 6.00 to 7.00

Summary: Cn1cc(-c2cccc(-c3ncc(-c4cnn(C)c4)c(N4CC(O)C4)n3)c2)cn1 , IRAK1 (Homo sapiens), pIC50 = < 5.30

# pIC50 measured on IRAK1 (Homo sapiens) for item Cc1nnc(-c2cnc(-c3cccc(-c4cnn(C)c4)c3)nc2NC2CCC(F)(F)CC2)s1 = < 5.30

Note to self: pIC50 of Cn1cc(-c2cccc(-c3ncc(-c4cnn(C)c4)c(N[C@H]4CC[C@H](O)[C@@H]4O)n3)c2)cn1 with IRAK1 (Homo sapiens) was 6.00 to 7.00

Measured pIC50 for this entry CC(=O)N1CCCCC1CCNc1nc(-c2cccc(-c3cnn(C)c3)c2)ncc1-c1cnn(C)c1 (centres unmarked) on IRAK1 (Homo sapiens): < 5.30

Given the molecule O=C1CC[C@@H](COc2nccc3cc4c(=O)[nH]cc(CCO)c4cc23)N1 and test system IRAK1 (Homo sapiens), the measured pIC50 is 5.04

Param item: C=CC(=O)N1CCC[C@H](c2nc(-c3ccc(NC(=O)c4cccc(-c5[nH]ncc5Cl)n4)cc3)no2)C1 ; param system: IRAK1 (Homo sapiens); output pIC50: 8.04

* * *

Let's look at some IC50 data for IRAK1 (Homo sapiens) that I collected from the literature.

Before answering, review these 3 worked examples.
[[record]]
compound = "Cc1cc(=O)n2nc1-c1cccc(c1)CCn1c(nc3ccccc31)NC(=O)c1cccc(c1)C2"
tested_target = "IRAK1 (Homo sapiens)"
measured_metric = "IC50"
recorded_value = "< 100 nM"

[[record]]
compound = "FC(F)n1cc(-c2ccc3ncc(-c4cccc(NC5CNCC5(F)F)n4)n3n2)cn1 (stereo not shown)"
tested_target = "IRAK1 (Homo sapiens)"
measured_metric = "IC50"
recorded_value = "1150 nM"

[[record]]
compound = "CC(=O)NCCNc1nc(-c2cccc(-c3cnn(C)c3)c2)ncc1-c1cnn(C)c1"
tested_target = "IRAK1 (Homo sapiens)"
measured_metric = "IC50"
recorded_value = "100 to 1000 nM"


Per the record, CC(C)n1cc(-c2ccc3ncc(-c4cccc(NC5CCNC5)n4)n3n2)cn1 (stereo not shown) has IC50 of 1620 nM

Entry C=CC(=O)N1C[C@@H](c2nc(-c3ccc(NC(=O)c4cccc(-c5ccn[nH]5)n4)nc3)no2)CC(F)(F)C1 , IC50 reported as 14.8 nM
